# credit: patent US20230235004A1

Molecular target: T1, human MAdCAM expressed on cells (human, UniProt Q13477 19-382)
T1 construct: whole, on cells
T1 sequence (looked up): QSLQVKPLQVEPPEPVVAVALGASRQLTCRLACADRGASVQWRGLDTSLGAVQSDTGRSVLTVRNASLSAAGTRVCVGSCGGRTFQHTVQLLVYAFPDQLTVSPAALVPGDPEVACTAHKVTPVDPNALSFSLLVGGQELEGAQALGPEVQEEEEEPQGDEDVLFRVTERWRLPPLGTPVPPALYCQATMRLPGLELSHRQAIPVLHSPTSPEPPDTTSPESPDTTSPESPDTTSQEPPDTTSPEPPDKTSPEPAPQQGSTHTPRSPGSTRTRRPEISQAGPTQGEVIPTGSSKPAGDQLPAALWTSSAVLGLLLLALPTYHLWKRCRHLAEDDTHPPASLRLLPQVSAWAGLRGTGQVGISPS
Experiment: cell binding
METRIC NAME: binding result

[[record]]
binder = "MAdCAM antibody Table 1 clone 5 (scFv) scFv: EVQLLESGGGLVQPGGSLRLSCAASGFTFSSYWMHWVRQAPGKGLEWVSSISPGGSNIDYADSVKGRFTISRDNSKNTLYLQMNSLRAEDTAVYYCAREVQLSHYDYWGQGTLVTVSSGGGGSGGGGSGGGGSGGGGSDIQMTQSPSSLSASVGDRVTITCRASQGISNSLAWYQQKPGKAPKLLIYGASSLQSGVPSRFSGSGSGTDFTLTISSLQPEDFATYYCQQANSFPFTFGQGTKVEIK"
metric_name = "binding result"
endpoint_result = "binds"

[[record]]
binder = "MAdCAM antibody Table 1 clone 57 (scFv) scFv: QVQLVQSGAEVKKPGASVKVSCKASGYTFTSYYMHWVRQAPGQGLEWMGIINPSGGSTSYAQKFQGRVTMTRDTSTSTVYMELSSLRSEDTAVYYCARDSVAGTGGRYYGMDVWGQGTLVTVSSGGGGSGGGGSGGGGSGGGGSDIQMTQSPSSLSASVGDRVTITCRASQGISNYFAWYQQKPGKAPKLLIYAASSLQGGVPSRFSGSGSGTDFTLTISSLQPEDFATYYCQQSYSLPYTFGQGTKLEIK"
metric_name = "binding result"
endpoint_result = "binds"

[[record]]
binder = "MAdCAM antibody Table 1 clone 10 (scFv) scFv: QVQLVQSGAEVKKPGASVKVSCKASGYTLTTWYMYWVRQAPGQGLEWMGWINPNRGATNYAQKFQGRVTMTRDTSTSTVYMELSSLRSEDTAVYYCAKGDLWGAMDVWGQGTLVTVSSGGGGSGGGGSGGGGSGGGGSDIQMTQSPSSLSASVGDRVTITCRASDNIGSWLAWYQQKPGKAPKLLIYAASSLQSGVPSRFSGSGSGTDFTLTISSLQPEDFATYYCQQGYSTPPTFGQGTKVEIK"
metric_name = "binding result"
endpoint_result = "binds"

